# System: WNK3
# CONDITION_PARAMETERS: Compound Concentration (nM):1000;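 also: KINOMEscan scanMAX binding as percent activity remaining versus control; lower means stronger binding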
For each entry below, report its Percent Control value.
Your answer should be a number followed by the unit of measure.

Q: Give the measured Percent Control of CN1CCN(C(=O)c2ccc(NC(=O)Nc3ccc(N(C)c4ccnc(Nc5ccc(CS(C)(=O)=O)cc5)n4)cc3)cc2)CC1.Cl [GW830263A] .
A: 93%

Q: Follow-up entry: C[C@@H](Oc1cc(-n2cnc3ccc(OC4CCN(C)CC4)cc32)sc1C(N)=O)c1ccccc1Cl [GSK579289A]
A: 26%

Q: Follow-up entry: COc1cc2ncnc(Nc3ccc4c(cnn4Cc4ccccc4)c3)c2cc1OC.Cl [GW282449A]
A: 100%

Q: Follow-up entry: Cl.O=C(Nc1ccc(Oc2ccc3[nH]c(NC(=O)c4ccccc4)nc3c2)cc1)Nc1cc(C(F)(F)F)ccc1F [GW709042A]
A: 88%

Q: Follow-up entry: `CCc1ccc(Oc2nccc(-c3c(-c4ccc(F)cc4)ncn3C3CCNCC3)n2)cc1`
A: 89%

Q: Follow-up entry: O=C1Nc2ccc(C(=O)c3ccco3)cc2C1=Cc1cc(Cl)c(O)c(Cl)c1 [GW406108X]
A: 93%

Q: Follow-up entry: CCS(=O)(=O)c1ccc(OC)c(Nc2ncc(-c3cccc(OC)c3)o2)c1 [GW580509X]
A: 100%

Q: Follow-up entry: COc1ccc2[nH]c3c4[nH]c5ccc(OC)cc5c4c4c(c3c2c1)C(=O)NC4=O [GW296115X]
A: 92%

* * *

# Test system: CSNK2A2
# CONDITION_PARAMETERS: Compound Concentration (nM):1000
RESULT_TYPE: Percent Control (%)
Give a bare numeral; the unit % is implied.

Q: Give the measured Percent Control of Cl.c1ccc(Cc2nc3ccc(Nc4ncnc5ccccc45)cc3[nH]2)cc1 [GR269666A] .
A: 100

Q: Follow-up entry: CN(C)c1cc2c(Nc3ccc4c(cnn4Cc4ccccc4)c3)ncnc2cn1 [GW282974X]
A: 65

Q: Follow-up entry: CC(C)COC(=O)c1ccc2c(c1)/C(=C/Nc1ccc(S(N)(=O)=O)cc1)C(=O)N2 [GW416981X]
A: 1.5

Q: Follow-up entry: CN1CCN(C(=O)c2ccc(NC(=O)Nc3ccc(N(C)c4ccnc(Nc5ccc(CS(C)(=O)=O)cc5)n4)cc3)cc2)CC1.Cl [GW830263A]
A: 63

Q: Follow-up entry: `COc1cc(C)c(N(C)C(=O)CN(C)C)cc1Nc1nc(Nc2cccc(F)c2C(N)=O)c2cc[nH]c2n1`
A: 81

Q: Follow-up entry: O=C1Nc2ccc(C(=O)c3ccco3)cc2C1=Cc1cc(Cl)c(O)c(Cl)c1 [GW406108X]
A: 19

Q: Follow-up entry: C/C(Nc1ccc(S(N)(=O)=O)cc1)=C1/C(=O)Nc2ccccc21 [GW335962X]
A: 21

Q: Follow-up entry: `CCc1ccc(Oc2nccc(-c3c(-c4ccc(F)cc4)ncn3C3CCNCC3)n2)cc1`
A: 69

* * *

# System: PIK3C2B
# CONDITION_PARAMETERS: Compound Concentration (nM):1000
RESULT_TYPE: Percent Control (%)
Give a bare numeral; the unit % is implied.

Q: Under PIK3C2B: Percent Control value of `CCn1c(-c2nonc2N)nc2c(C#CC(C)(C)O)nc(OCCNC)cc21.Cl` ?
A: 82

Q: Follow-up entry: C[C@@H](Oc1cc(-n2cnc3ccc(OC4CCN(C)CC4)cc32)sc1C(N)=O)c1ccccc1Cl [GSK579289A]
A: 32

Q: Follow-up entry: Cl.O=C(O[C@H]1CN[C@H](C#Cc2cc3ncnc(Nc4ccc5c(cnn5Cc5ccccc5)c4)c3s2)C1)N1CCOCC1 [GSK200398A]
A: 88

Q: Follow-up entry: COc1cccc(-n2ncc3c(N/N=C/c4ccncc4)ncnc32)c1 [GW784752X]
A: 100

Q: Follow-up entry: CCS(=O)(=O)c1ccc(OC)c(Nc2ncc(-c3cccc(F)c3)o2)c1 [GW621970X]
A: 100

Q: Follow-up entry: Cl.O=S1CCN(Cc2ccc(-c3ccc4ncnc(Nc5ccc(OCc6ccccc6)c(F)c5)c4c3)o2)CC1 [GW576924A]
A: 100

Q: Follow-up entry: NS(=O)(=O)c1ccc(N/N=C2\C(=O)Nc3ccc(Cl)cc32)cc1 [GW280670X]
A: 100

Q: Follow-up entry: COc1ccc(COc2ccc(Cc3cnc(N)nc3N)cc2OC)cc1 [GW632580X]
A: 86

Q: Follow-up entry: Nc1ncnc2occ(-c3ccc(NC(=O)Nc4cc(C(F)(F)F)ccc4F)cc3)c12 [GW770249X]
A: 100

Q: Follow-up entry: NS(=O)(=O)c1ccc(N/N=C2\C(=O)Nc3ccc(C(=O)NCCc4c[nH]cn4)cc32)cc1 [GW300660X]
A: 100

Q: Follow-up entry: COc1cc(C=NNc2ncnc3c2cnn3-c2ccccc2)ccc1O [GW513184X]
A: 71

Q: Follow-up entry: CN1CCN(C(=O)c2ccc(NC(=O)Nc3ccc(N(C)c4ccnc(Nc5ccc(CS(C)(=O)=O)cc5)n4)cc3)cc2)CC1.Cl [GW830263A]
A: 100

Q: Follow-up entry: CC(C)COC(=O)c1ccc2c(c1)/C(=C/Nc1ccc(S(N)(=O)=O)cc1)C(=O)N2 [GW416981X]
A: 100

Q: Follow-up entry: C/C(Nc1ccc(S(N)(=O)=O)cc1)=C1/C(=O)Nc2ccccc21 [GW335962X]
A: 100

Q: Follow-up entry: COC(=O)Nc1nc2ccc(Oc3ccc(NC(=O)Nc4cc(C(F)(F)F)ccc4F)cc3)cc2s1.Cl [GW693917A]
A: 100

Q: Follow-up entry: Cc1cc(O)cc(C)c1/C=C/c1cncc(C(N)=O)c1 [GW435821X]
A: 97

Q: Follow-up entry: COc1cc(/C=N/Nc2ncnc3[nH]ncc23)ccc1O [GW578748X]
A: 72

* * *

# Test system: PIP5K1C
# CONDITION_PARAMETERS: Compound Concentration (nM):1000
Label True when Percent Control < 70%; otherwise False.

Q: Please indicate whether the reported Percent Control of CC1=C(C(=O)Nc2ccc3[nH]ncc3c2)C(c2ccc(Cl)c(Cl)c2)CC(=O)N1 (centres unmarked) [GSK299115A] is strictly below 70%.
A: False

Q: Follow-up entry: COc1cc(C=NNc2ncnc3c2cnn3-c2ccccc2)ccc1O [GW513184X]
A: True

Q: Follow-up entry: `CCn1c(-c2nonc2N)nc2c(C#CC(C)(C)O)nc(OCCNC)cc21.Cl`
A: True

Q: Follow-up entry: COc1ccc2c(-c3ccnc(Nc4cccc(OC(F)(F)F)c4)n3)cnn2n1 [GW810372X]
A: True

* * *

For each entry below, report its Percent Control value.
# Test system: LIMK1
# CONDITION_PARAMETERS: Compound Concentration (nM):1000
Give a bare numeral; the unit % is implied.

Q: Give the measured Percent Control of `CCc1ccc(Oc2nccc(-c3c(-c4ccc(F)cc4)ncn3C3CCNCC3)n2)cc1` .
A: 75

Q: Follow-up entry: COc1ccc2c(-c3ccnc(Nc4cccc(OC(F)(F)F)c4)n3)cnn2n1 [GW810372X]
A: 94

Q: Follow-up entry: CC1=C(C(=O)Nc2ccc3[nH]ncc3c2)C(c2ccc(Cl)c(Cl)c2)CC(=O)N1 (centres unmarked) [GSK299115A]
A: 94

Q: Follow-up entry: COc1cc(/C=N/Nc2ncnc3[nH]ncc23)ccc1O [GW578748X]
A: 100

Q: Follow-up entry: Cc1cc(O)cc(C)c1/C=C/c1cncc(C(N)=O)c1 [GW435821X]
A: 100

* * *

# Test system: NDR1
# Construct: gene STK38
# CONDITION_PARAMETERS: Compound Concentration (nM):1000
For each entry below, report its Percent Control value.
Give a bare numeral; the unit % is implied.

Q: Under NDR1: Percent Control value of CN(C)c1cc2c(Nc3ccc4c(cnn4Cc4ccccc4)c3)ncnc2cn1 [GW282974X] ?
A: 100

Q: Follow-up entry: O=C(Nc1n[nH]c2nc(-c3ccc(O)cc3)c(Br)cc12)C1CC1 [SB-725317]
A: 100

Q: Follow-up entry: COc1cc2ncnc(Nc3ccc4c(cnn4Cc4ccccc4)c3)c2cc1OC.Cl [GW282449A]
A: 100

Q: Follow-up entry: NS(=O)(=O)c1ccc(N/N=C2\C(=O)Nc3ccc(C(=O)NCc4ccncc4)cc32)cc1 [GW300657X]
A: 76

Q: Follow-up entry: COc1ccccc1-c1cc(/C=C2\C(=O)Nc3ncc(Br)cc32)cc(Br)c1O [GW442130X]
A: 97

* * *

# System: FLT3(N841I)
# CONDITION_PARAMETERS: Compound Concentration (nM):1000
RESULT_TYPE: Percent Control (%)
Give a bare numeral; the unit % is implied.

Q: Under FLT3(N841I): Percent Control value of CCS(=O)(=O)c1ccc(OC)c(Nc2ncc(-c3cccc(OC)c3)o2)c1 [GW580509X] ?
A: 0

Q: Follow-up entry: CC1=C(C(=O)Nc2ccc3[nH]ncc3c2)C(c2ccc(Cl)c(Cl)c2)CC(=O)N1 (stereo not drawn) [GSK299115A]
A: 100

Q: Follow-up entry: CCS(=O)(=O)c1ccc(OC)c(Nc2ncc(-c3cccc(F)c3)o2)c1 [GW621970X]
A: 56

Q: Follow-up entry: Cl.O=C(O[C@H]1CN[C@H](C#Cc2cc3ncnc(Nc4ccc5c(cnn5Cc5ccccc5)c4)c3s2)C1)N1CCOCC1 [GSK200398A]
A: 100

Q: Follow-up entry: O=C(Nc1n[nH]c2nc(-c3ccc(O)cc3)c(Br)cc12)C1CC1 [SB-725317]
A: 100

Q: Follow-up entry: Cl.c1ccc(Cc2nc3ccc(Nc4ncnc5ccccc45)cc3[nH]2)cc1 [GR269666A]
A: 100

Q: Follow-up entry: COc1cc2ncn(-c3cc(O[C@H](C)c4ccccc4Cl)c(C(N)=O)s3)c2cc1OC [GSK237701A]
A: 3.3

Q: Follow-up entry: COc1ccc(COc2ccc(Cc3cnc(N)nc3N)cc2OC)cc1 [GW632580X]
A: 75

Q: Follow-up entry: CC1=C(C(=O)Nc2ccc3[nH]ncc3c2)C(c2ccc3ccccc3c2)CC(=O)N1 (stereo not drawn) [GSK270822A]
A: 80

Q: Follow-up entry: COc1cc(C)c(N(C)C(=O)CN(C)C)cc1Nc1nc(Nc2cccc(F)c2C(N)=O)c2cc[nH]c2n1 [GSK2219385]
A: 93

Q: Follow-up entry: NS(=O)(=O)c1ccc(N/N=C2\C(=O)Nc3ccc(Cl)cc32)cc1 [GW280670X]
A: 100

Q: Follow-up entry: CN(C)c1cc2c(Nc3ccc4c(cnn4Cc4ccccc4)c3)ncnc2cn1 [GW282974X]
A: 100

Q: Follow-up entry: O=C1Nc2ccc(C(=O)c3ccco3)cc2C1=Cc1cc(Cl)c(O)c(Cl)c1 [GW406108X]
A: 54

Q: Follow-up entry: COc1ccccc1-c1cc(/C=C2\C(=O)Nc3ncc(Br)cc32)cc(Br)c1O [GW442130X]
A: 85

Q: Follow-up entry: NS(=O)(=O)c1ccc(N/N=C2\C(=O)Nc3ccc(C(=O)NCCc4c[nH]cn4)cc32)cc1 [GW300660X]
A: 100

Q: Follow-up entry: COc1ccc2c(-c3ccnc(Nc4cccc(OC(F)(F)F)c4)n3)cnn2n1 [GW810372X]
A: 55

Q: Follow-up entry: COc1cccc(-n2ncc3c(N/N=C/c4ccncc4)ncnc32)c1 [GW784752X]
A: 36

Q: Follow-up entry: Nc1ncnc2occ(-c3ccc(NC(=O)Nc4cc(C(F)(F)F)ccc4F)cc3)c12 [GW770249X]
A: 0
